As shown below, each of these compounds has a reported Cmax value.
test: Cmax in CD1 mouse at 2 mg/kg, po by LC-MS/MS method; assay type: ADME, organism-based; parameters: dose 2 mg/kg, route oral; conditions: in vivo
Write down the numeric answer in nM and omit the unit.

Looking for the measured Cmax of `CN1CCC(S(=O)(=O)c2ccc3nc(NC(=O)NC(=O)c4cc(N5CCOCC5)ccc4Cl)sc3c2)CC1` , can you help?
6500

Next compound up: `CN1CCC(S(=O)(=O)c2ccc3nc(NC(=O)NC(=O)c4cc(-n5cccn5)ccc4Cl)sc3c2)CC1`
1500

Now try `CN1CCC(S(=O)(=O)c2ccc3nc(NC(=O)NC(=O)c4cc(N5CCCC5)ccc4Cl)sc3c2)CC1` .
5800

Check `CN1CCC(S(=O)(=O)c2ccc3nc(NC(=O)NC(=O)c4cc5c(cc4Cl)CCN5C)sc3c2)CC1` too.
3000

Next up: `CN1CCC(S(=O)(=O)c2ccc3nc(NC(=O)NC(=O)c4cc(N5CCCC5)c(C#N)cc4Cl)sc3c2)CC1`
840

What about `Cc1ccnn1-c1ccc(Cl)c(C(=O)NC(=O)Nc2nc3ccc(S(=O)(=O)C4CCN(C)CC4)cc3s2)c1` ?
640

---

molecular target: Growth hormone secretagogue receptor type 1 (Homo sapiens); assay: Displacement of [125I]human ghrelin from human GHS-R1a expressed in HEK cell membranes after 60 mins by gamma counting method
Sequence (Q92847 whole entry): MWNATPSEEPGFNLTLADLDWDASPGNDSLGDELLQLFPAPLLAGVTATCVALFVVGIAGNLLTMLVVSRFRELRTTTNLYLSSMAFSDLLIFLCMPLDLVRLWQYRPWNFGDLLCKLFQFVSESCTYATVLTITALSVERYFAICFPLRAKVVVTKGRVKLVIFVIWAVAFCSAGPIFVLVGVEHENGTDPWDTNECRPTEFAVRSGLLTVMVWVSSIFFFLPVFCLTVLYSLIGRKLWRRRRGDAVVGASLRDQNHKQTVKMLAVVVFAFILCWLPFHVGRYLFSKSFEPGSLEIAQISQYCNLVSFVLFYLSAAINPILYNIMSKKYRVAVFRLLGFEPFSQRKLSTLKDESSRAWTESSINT
pIC50: −log10 of the molar value.
Record Y whenever pIC50 is at 9 or higher; record N when lower.

[[record]]
smiles_representation = "C#Cc1ccc(Cl)c(C(=O)NC(=O)Nc2nc3ccc(S(=O)(=O)CCCN4CCN(C)CC4)cc3s2)c1"
label_class = "N"

[[record]]
smiles_representation = "CN1CCN(CCCS(=O)(=O)c2ccc3nc(NC(=O)NC(=O)c4cc(C5CC5)ccc4Cl)sc3c2)CC1"
label_class = "Y"

[[record]]
smiles_representation = "CCN(CC)CCCS(=O)(=O)c1ccc2nc(NC(=O)NC(=O)c3ccccc3Cl)sc2c1"
label_class = "N"

[[record]]
smiles_representation = "CS(=O)(=O)c1ccc2nc(NC(=O)NC(=O)c3ccccc3Cl)oc2c1"
label_class = "N"

[[record]]
smiles_representation = "CN1CCN(CCCS(=O)(=O)c2ccc3nc(NC(=O)NC(=O)c4cc(N5CCCC5)c(C#N)cc4Cl)sc3c2)CC1"
label_class = "Y"

[[record]]
smiles_representation = "CN1CCC(S(=O)(=O)c2ccc3nc(NC(=O)NC(=O)c4cc(-n5cccn5)ccc4Cl)sc3c2)CC1"
label_class = "N"


Has `CCN(CC)CCCS(=O)(=O)c1ccc2nc(NC(=O)NC(=O)c3cc(-n4cccn4)ccc3Cl)sc2c1` a recorded pIC50 greater than or equal to 9?
N

---

system: MDR1; assay: Apparent permeability in MDCK cells expressing MDR1 at 10 uM assessed as apical to basolateral side transport; assay type: ADME, cell-based, Canis lupus familiaris; conditions: dog
Reported Papp A→B at 10 µM is given for each of the following molecules.
Include the unit right after the number.

Example entries and their recorded answers appear below.
[[record]]
smiles_representation = "CCN(CC)CCCS(=O)(=O)c1ccc2nc(NC(=O)NC(=O)c3cc(-n4cccc4)ccc3Cl)sc2c1"
target_of_assay = "MDR1"
reported_endpoint = "Papp A→B at 10 µM"
endpoint_value = "0.1 ×10⁻⁶ cm/s"

[[record]]
smiles_representation = "CN1CCN(CCCS(=O)(=O)c2ccc3nc(NC(=O)NC(=O)c4cc(-n5cccn5)ccc4Cl)sc3c2)CC1"
target_of_assay = "MDR1"
reported_endpoint = "Papp A→B at 10 µM"
endpoint_value = "2.9 ×10⁻⁶ cm/s"


Form: Entry = `C#Cc1ccc(Cl)c(C(=O)NC(=O)Nc2nc3ccc(S(=O)(=O)CCCN4CCN(C)CC4)cc3s2)c1` | System = MDR1 | Papp A→B at 10 µM = ____
3.3 ×10⁻⁶ cm/s

Same lookup for `CN1CCN(CCCS(=O)(=O)c2ccc3nc(NC(=O)NC(=O)c4cc(-n5cccc5)ccc4Cl)sc3c2)CC1` , please.
0.37 ×10⁻⁶ cm/s

Taken from ChEMBL document CHEMBL3352721.
